// provenance: the supplement of paper PMC10567573

Quick list: protein stability index per entry.
B1: EPB41L3 (parent)
chain: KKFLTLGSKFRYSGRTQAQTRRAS

Variants of: B1
experiment-summary: protein stability index of a GFP-peptide fusion (GPS, HEK-293T) (PSI 1-6); higher = more stable;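 further: lentivirally expressed fusions sorted by FACS into six bins by GFP to DsRed ratio, PSI derived from sequencing read proportions per bin multiplied by bin number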
condition-summary: c terminus: a fixed tail appended

- sequence-text: "KKFLTLGSKFRYSGRTQAQYRRAS [T20Y]"
  protein stability index: 2.69

Lab note: KKFLTLGSKFRYSGRTQQQTRRAS [A18Q] gave protein stability index of 2.73

protein stability index reading for KKFLTLGSKFRYSGRWQAQTRRAS [T16W] : 1.84

The recorded protein stability index for entry KKFLTLGSKFRYSGRIQAQTRRAS [T16I] equals 2.83

Item: KKFLTLGFKFRYSGRTQAQTRRAS [S8F] | protein stability index: 2.43

Please fill in: protein stability index reported for KKFLTLGSKFRYSGRTQAQTRRAM [S24M] = 2.5
